Below, each of the molecules is paired with its reported -logMIC value.
Test system: Mycobacterium tuberculosis
Experiment: Antimycobacterial activity against Mycobacterium tuberculosis H37Rv ATCC 27294 assessed as inhibition of mycobacterial growth incubated for 2 weeks by MABA method
Assay type: functional

Param readout= -logMIC; system= Mycobacterium tuberculosis; entry= COc1cc(C[C@@H](C)[C@@H](C)Cc2ccc(OC(=O)c3ccc(Br)cc3)c(OC)c2)ccc1O (racemic) ; returns value.
4.58

Param readout= -logMIC; system= Mycobacterium tuberculosis; entry= CCCCCCCCCCCCCCCCCC(=O)Oc1ccc(C[C@@H](C)[C@@H](C)Cc2ccc(OC(=O)CCCCCCCCCCCCCCCCC)c(OC)c2)cc1OC ; returns value.
3.85

Param readout= -logMIC; system= Mycobacterium tuberculosis; entry= COc1cc(C[C@@H](C)[C@@H](C)Cc2ccc(OC(=O)c3cccnc3)c(OC)c2)ccc1O (racemic) ; returns value.
4.05

Param readout= -logMIC; system= Mycobacterium tuberculosis; entry= CCCCCCCCCCCCCCCC(=O)Oc1ccc(C[C@H](C)[C@H](C)Cc2ccc(O)c(OC)c2)cc1OC (racemic) ; returns value.
4.54

Param readout= -logMIC; system= Mycobacterium tuberculosis; entry= CCCCCCCC/C=C\CCCCCCCC(=O)Oc1ccc(C[C@@H](C)[C@@H](C)Cc2ccc(OC(=O)CCCCCCC/C=C\CCCCCCCC)c(OC)c2)cc1OC ; returns value.
4.88

Param readout= -logMIC; system= Mycobacterium tuberculosis; entry= COc1cc(C[C@@H](C)[C@@H](C)Cc2ccc(OC(=O)c3ccccc3)c(OC)c2)ccc1O (racemic) ; returns value.
4.61

Param readout= -logMIC; system= Mycobacterium tuberculosis; entry= COc1cc(C[C@@H](C)[C@@H](C)Cc2ccc(OCCN(C)C)c(OC)c2)ccc1O (racemic) ; returns value.
4.53

Param readout= -logMIC; system= Mycobacterium tuberculosis; entry= CCN(CC)CCOc1ccc(C[C@@H](C)[C@@H](C)Cc2ccc(OCCN(CC)CC)c(OC)c2)cc1OC ; returns value.
4.55

Param readout= -logMIC; system= Mycobacterium tuberculosis; entry= COc1cc(C[C@@H](C)[C@@H](C)Cc2ccc(OCCN(C)C)c(OC)c2)ccc1OCCN(C)C ; returns value.
4.32

Param readout= -logMIC; system= Mycobacterium tuberculosis; entry= COc1cc(C[C@@H](C)[C@@H](C)Cc2ccc(OC(=O)c3ccc(Br)cc3)c(OC)c2)ccc1OC(=O)c1ccc(Br)cc1 ; returns value.
4.09

Param readout= -logMIC; system= Mycobacterium tuberculosis; entry= CCCC(=O)Oc1ccc(C[C@@H](C)[C@@H](C)Cc2ccc(OC(=O)CCC)c(OC)c2)cc1OC ; returns value.
4.04

Param readout= -logMIC; system= Mycobacterium tuberculosis; entry= CCCC(=O)Oc1ccc(C[C@H](C)[C@H](C)Cc2ccc(O)c(OC)c2)cc1OC (racemic) ; returns value.
3.94

Param readout= -logMIC; system= Mycobacterium tuberculosis; entry= COc1cc(C[C@@H](C)[C@@H](C)Cc2ccc(OC(=O)c3cnccn3)c(OC)c2)ccc1OC(=O)c1cnccn1 ; returns value.
4.23

Param readout= -logMIC; system= Mycobacterium tuberculosis; entry= COc1cc(C[C@@H](C)[C@@H](C)Cc2ccc(OC(=O)c3ccccc3[N+](=O)[O-])c(OC)c2)ccc1OC(=O)c1ccccc1[N+](=O)[O-] ; returns value.
4.03

Param readout= -logMIC; system= Mycobacterium tuberculosis; entry= COc1cc(C[C@@H](C)[C@@H](C)Cc2ccc(OCCN3CCCC3)c(OC)c2)ccc1O (racemic) ; returns value.
5.25

Param readout= -logMIC; system= Mycobacterium tuberculosis; entry= COc1cc(C[C@@H](C)[C@@H](C)Cc2ccc(OC(=O)c3ccccn3)c(OC)c2)ccc1O (racemic) ; returns value.
3.87
